- Test system: DAF-12 nuclear receptor (Haemonchus contortus)
- procedure-text: hcDAF-12 driven luciferase reporter activation – cell-based, luminescence, HEK293, lit1-tk-luc reporter, primary screen (AID 652067)
- experimental-setup: HEK293 hcDAF-12 lit1-tk-luc reporter, at 6.8 µM, 0% DMSO, 100% Δ7-dafachronic acid
In all, about 370,000 compounds went through this assay and about 5,400 (1.5%) were called active.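 How the source made its calls: active means activation above the mean of all tested compounds plus 3 SD (cut at about 5.5% in these data); inactive means the rest.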 This excerpt belongs to a sample that is enriched for actives.
Outcomes: true = active, false = inactive

>  <molecule>
Cc1ccc(-c2cn3cc([N+](=O)[O-])ccc3n2)cc1

>  <label-value>
true

$$$$
>  <molecule>
O=C(COC(=O)c1ccccn1)NNC(=O)c1ccc([N+](=O)[O-])cc1

>  <label-value>
false

$$$$
>  <molecule>
CC1=C(N2CCN(c3ncccn3)CC2)CCC1=O

>  <label-value>
false

$$$$
>  <molecule>
CC(=O)c1ccc(S(=O)(=O)NCC2CCN(C(=O)C(=O)c3cccs3)CC2)cc1

>  <label-value>
false

$$$$
>  <molecule>
CC12CCC(C(=O)N3CCN(c4ncccn4)CC3)(c3nc4ccccc4nc31)C2(C)C (configuration not stated)

>  <label-value>
false

$$$$
>  <molecule>
CS(=O)(=O)Nc1ccccc1C(=O)OCC(=O)NC1CC1

>  <label-value>
false

$$$$
>  <molecule>
Cc1ccccc1NC(=O)COC(=O)c1ccc(Sc2ncn[nH]2)c([N+](=O)[O-])c1

>  <label-value>
false

$$$$
>  <molecule>
Cc1noc(C)c1NC(=O)Nc1ccc2c(c1)C(=O)N([C@H](C)CO)C[C@H](C)[C@H](CN(C)Cc1ccncc1)OCCCC[C@@H](C)O2

>  <label-value>
false

$$$$
>  <molecule>
O=[N+]([O-])c1ccc2oc(-c3cccc(O)c3)nc2c1

>  <label-value>
true

$$$$
>  <molecule>
NC(N)=N/N=C/c1ccc(OCc2ccc(Cl)cc2Cl)cc1

>  <label-value>
false

$$$$
>  <molecule>
C/C(=N/OC(=O)c1cccc(C(F)(F)F)c1)c1cnccn1

>  <label-value>
false

$$$$
>  <molecule>
N/C(=N\OC(=O)Cc1ccc([N+](=O)[O-])cc1)c1ccccn1

>  <label-value>
false

$$$$
>  <molecule>
COC(=O)[C@]12C[C@H](CC(=O)NCCC(C)C)C(=O)N(CCc3ccc(OC)c(OC)c3)C1=C[C@H](C(C)(C)C)O[C@@H]2C

>  <label-value>
false

$$$$
>  <molecule>
S=c1c2[nH]cnc2ncn1CCSc1ncnc2nc[nH]c12

>  <label-value>
false

$$$$
>  <molecule>
C[C@@H]1CN([C@@H](C)CO)C(=O)c2cccc(NC(=O)Nc3cccc4ccccc34)c2O[C@H]1CN(C)S(=O)(=O)c1ccccc1F

>  <label-value>
false

$$$$
>  <molecule>
O=C(COC(=O)c1ccccn1)NNC(=O)c1ccc(Br)cc1

>  <label-value>
false

$$$$
>  <molecule>
Cn1cnc(C(F)(F)F)c1-c1ccc([N+](=O)[O-])cc1

>  <label-value>
false

$$$$
>  <molecule>
CCOC(=O)C1=C(C(=O)OCC)C2N(Cc3ccc(C#N)cc3)c3ccccc3[C@@]23C[C@@H](C(=O)OC)N(S(=O)(=O)c2ccc(F)cc2)C3=N1 (some centres not stated)

>  <label-value>
false

$$$$
>  <molecule>
O=C1CCCCN1CCCC(=O)N1CCCC(Nc2ccc(F)cc2)C1 (configuration not stated)

>  <label-value>
false

$$$$
>  <molecule>
C=C(C)C#CC(Cc1ccccc1)NCC1CC1 (configuration not stated)

>  <label-value>
false

$$$$
>  <molecule>
COc1cccc(-c2nc3cc(C)ccc3o2)c1

>  <label-value>
true

$$$$
>  <molecule>
O=C(Nc1ccccc1)N(Cc1cccnc1)Cc1ccco1

>  <label-value>
false

$$$$
>  <molecule>
COc1ccc(C(=O)O/N=C(\N)c2ccccn2)cc1[N+](=O)[O-]

>  <label-value>
true

$$$$
>  <molecule>
c1cnc(N2CCN(c3ccc4ccccc4n3)CC2)nc1

>  <label-value>
true

$$$$
>  <molecule>
Cc1ccc(C(=O)O/N=C(\N)c2ccccn2)cc1Cl

>  <label-value>
true

$$$$
>  <molecule>
C[C@H](C(=O)N(C)c1ccccc1)[C@@H](O)c1ccc2ccccc2c1

>  <label-value>
false

$$$$
>  <molecule>
CN(CCO)c1cccc2c1S(=O)(=O)N(Cc1cn(Cc3ccc(C(F)(F)F)cc3)nn1)Cc1ccccc1O2

>  <label-value>
false

$$$$
>  <molecule>
O=C(COC(=O)/C(=C/c1cccs1)c1cccs1)NCc1ccccc1Cl

>  <label-value>
false

$$$$
>  <molecule>
Cc1ccc(-n2c(SCC(=O)Nc3ccc4c(c3)OCO4)nnc2-c2ccccn2)cc1

>  <label-value>
false

$$$$
>  <molecule>
CC(C#N)OC(=O)c1cccnc1SCC(=O)Nc1ccc2c(c1)OCO2 (configuration not stated)

>  <label-value>
true

$$$$
>  <molecule>
CC(C(=O)c1ccc(-c2ccccc2)cc1)[n+]1cccc(Br)c1 (configuration not stated)

>  <label-value>
false

$$$$
>  <molecule>
Cc1cc2c(nc1C)CCCN2C

>  <label-value>
false

$$$$
>  <molecule>
CCC(=O)Nc1ccc2c(c1)C(=O)N(C)[C@H]1CC[C@H](CC(=O)NCCOC)O[C@@H]1CO2

>  <label-value>
false

$$$$
>  <molecule>
COC1=NC2=NCCN2C(OC)=N1

>  <label-value>
false

$$$$
>  <molecule>
CC(C)(C)n1nc(C2CC2)c(Br)c1NC(=O)c1ccccc1F

>  <label-value>
false

$$$$
>  <molecule>
CCOC(=O)C1CCN(C(=O)C(C)(C)NC(=O)Nc2ccc(F)c(F)c2)CC1

>  <label-value>
false

$$$$
>  <molecule>
COC(CNC(=O)[C@H](Cc1ccccc1)NC1(C(=O)NC2CCCCC2)CCCCC1)OC

>  <label-value>
false

$$$$
